tested on: 873145-292-R-J1-PDC complex spheroid viability; assay: Anticancer human tumor 873145-292-R-J1-PDC patient-derived renal clear cell carcinoma cell line growth inhibition [POLQ]; settings: second compound 3.16 µM; first compound 3.16 µM; stronger effect = lower value
Each entry below lists one item and its recorded viability, T/C value.

Given the compound CC(C)n1c(=O)n(C)c2cnc3cc(F)c(-c4ccc(OCCCN5CCCCC5)nc4)cc3c21 + Cc1cccc(N(C)C(=O)C2C(O)CCN2c2nc(C)cc(C(F)(F)F)c2C#N)c1 , what is its reported viability, T/C? 107%

Given the compound CCCS(=O)(=O)Nc1ccc(F)c(C(=O)c2c[nH]c3ncc(-c4ccc(Cl)cc4)cc23)c1F + Nc1ccc(C#CCN(C(=O)Cc2ncc(C(F)(F)F)cc2C(F)(F)F)c2ccc(F)cc2)nn1 , what is its reported viability, T/C? 101%

* * *

Tested on: 873145-292-R-J1-PDC complex spheroid viability
Assay: Anticancer human tumor 873145-292-R-J1-PDC cell line growth inhibition [POLQ];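 also: spheroids exposed to compounds for 7 days before viability readout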
Settings: curve of first compound; second compound 1 µM
Method: Multicellular complex tumor spheroid response to Polymerase (POL) inhibitors (novobiocin, ART-558, RP6685) in combination with a variety of drugs and investigational agents in selected tumor cell lines The POL inhibitors (novobiocin, ART-558, and RP6685) were evaluated both individually and in combination with standard of care and investigational anticancer small molecules within a complex spheroid model of solid tumors. . […]
READOUT NAME: IC50

Before answering, review these 2 worked examples.
MOLECULE	READOUT NAME	ASSAY RESULT
C#Cc1c(F)ccc2cc(O)cc(-c3ncc4c(N5CC6CCC(C5)N6)nc(OCC56CCCN5CC(F)C6)nc4c3F)c12 (stereo not drawn) + COC1C(OC(N)=O)C(O)C(Oc2ccc3c(O)c(NC(=O)c4ccc(O)c(CC=C(C)C)c4)c(=O)oc3c2C)OC1(C)C	IC50	> 10 µM
CC(=O)O[C@H]1C(=O)[C@@]2(C)[C@H]([C@H](OC(=O)c3ccccc3)[C@]3(O)C[C@H](OC(=O)[C@H](O)[C@@H](NC(=O)c4ccccc4)c4ccccc4)C(C)=C1C3(C)C)[C@]1(OC(C)=O)CO[C@@H]1C[C@@H]2O + Cc1cccc(N(C)C(=O)C2C(O)CCN2c2nc(C)cc(C(F)(F)F)c2C#N)c1	IC50	> 3 µM

We next turn to a different molecule, shown below.
Given the molecule CNCc1ccc(-c2[nH]c3cc(F)cc4c3c2CCNC4=O)cc1 + Cc1cccc(N(C)C(=O)C2C(O)CCN2c2nc(C)cc(C(F)(F)F)c2C#N)c1 , what is its reported IC50? > 10 µM

* * *

Each entry below lists one item and its recorded viability, T/C value.
tested on: 873145-292-R-J1-PDC complex spheroid viability; test: Anticancer human tumor 873145-292-R-J1-PDC cell line growth inhibition [POLQ]; conditions: second compound 3.16 µM; first compound 0.0316 µM; stronger effect = lower value;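 also: spheroids exposed to compounds for 7 days before viability readout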;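 as to viability, T/C: luminescence signal used as surrogate for viable cell content; 100% = DMSO vehicle control viability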
Just the number in %, nothing appended.

Before answering, review these 4 worked examples.
MOLECULE	ASSAY RESULT
C=CCn1c(=O)c2cnc(Nc3ccc(N4CCN(C)CC4)cc3)nc2n1-c1cccc(C(C)(C)O)n1 + Cc1cccc(N(C)C(=O)C2C(O)CCN2c2nc(C)cc(C(F)(F)F)c2C#N)c1	112
O=C(Nc1ccc(O)c(NS(=O)(=O)c2ccc(F)cc2)c1)c1ccc(-c2ccccc2)cc1 + COC1C(OC(N)=O)C(O)C(Oc2ccc3c(O)c(NC(=O)c4ccc(O)c(CC=C(C)C)c4)c(=O)oc3c2C)OC1(C)C	97.3
Cn1ncnc1[C@H]1c2n[nH]c(=O)c3cc(F)cc(c23)N[C@@H]1c1ccc(F)cc1 + Nc1ccc(C#CCN(C(=O)Cc2ncc(C(F)(F)F)cc2C(F)(F)F)c2ccc(F)cc2)nn1	95.8
CC1COCCN1c1cc(C2(S(C)(=N)=O)CC2)nc(-c2ccnc3[nH]ccc23)n1 (stereo not given) + COC1C(OC(N)=O)C(O)C(Oc2ccc3c(O)c(NC(=O)c4ccc(O)c(CC=C(C)C)c4)c(=O)oc3c2C)OC1(C)C	100

We next turn to a different molecule, shown below.
Given the molecule COc1cc(C2c3cc4c(cc3C(OC3OC5COC(C)OC5C(O)C3O)C3COC(=O)C23)OCO4)cc(OC)c1O (stereo not given) + Nc1ccc(C#CCN(C(=O)Cc2ncc(C(F)(F)F)cc2C(F)(F)F)c2ccc(F)cc2)nn1 , what is its reported viability, T/C? 112
